molecular target: UniProt O43614; assay: FLIPR Ca2+ flux assay, hOX2R; format: cell-based; conditions: CHO cells expressing human orexin-2 receptor; agonist 70 pM Ala-6,12 orexin-A
Sequence (O43614 whole entry): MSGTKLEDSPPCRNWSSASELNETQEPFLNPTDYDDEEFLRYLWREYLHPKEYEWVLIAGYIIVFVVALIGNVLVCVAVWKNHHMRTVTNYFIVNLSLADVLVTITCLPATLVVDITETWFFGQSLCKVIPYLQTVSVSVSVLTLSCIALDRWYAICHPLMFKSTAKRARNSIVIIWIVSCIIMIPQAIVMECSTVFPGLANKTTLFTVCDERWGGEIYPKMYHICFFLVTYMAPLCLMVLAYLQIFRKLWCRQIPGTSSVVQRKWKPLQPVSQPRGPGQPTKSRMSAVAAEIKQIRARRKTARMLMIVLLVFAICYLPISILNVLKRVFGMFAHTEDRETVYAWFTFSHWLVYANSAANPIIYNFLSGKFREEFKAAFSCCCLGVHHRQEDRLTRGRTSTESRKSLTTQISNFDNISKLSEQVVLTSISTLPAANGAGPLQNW
Labelling: IC50 reported below 50 nM becomes YES; at or above becomes NO.

Would you please look over these solved cases?
COMPOUND	CLASS_NAME
C[C@@H]1CC[C@@H](c2nc(-c3cccc(F)n3)co2)CN1C(=O)c1ccccc1-n1nccn1	NO
C[C@@H]1CC[C@@H](c2nc(C(C)(C)O)c(C3CC3)o2)CN1C(=O)c1ccccc1-n1nccn1	YES
Cc1oc([C@@H]2CC[C@@H](C)N(C(=O)c3ccccc3-n3nccn3)C2)nc1C(C)(C)O	YES
C[C@@H]1CC[C@@H](c2nc(-c3ccccc3CO)co2)CN1C(=O)c1ccccc1-n1nccn1	YES
C[C@@H]1CC[C@@H](c2nc(C(C)(C)C)co2)CN1C(=O)c1ccccc1-n1nccn1	NO
Cc1oc([C@@H]2CC[C@@H](C)N(C(=O)c3ccccc3-c3ncccn3)C2)nc1C(C)(C)O	NO
COCc1nc([C@@H]2CC[C@@H](C)N(C(=O)c3ccccc3-n3nccn3)C2)oc1-c1ccccc1	NO
Cc1oc([C@@H]2CC[C@@H](C)N(C(=O)c3ccsc3-c3ncccn3)C2)nc1C(C)(C)O	YES

Please turn your attention to the following entry.
# strict comparison: is reported IC50 < 50 nM? input = `C[C@@H]1CC[C@@H](c2ncc(C3CCC3)o2)CN1C(=O)c1ccccc1-n1nccn1`
YES
